metric: pIC50
Convention used: pIC50 is expressed as -log10 of the molar concentration.

Lookup: Report its pIC50 with Protein deacetylase HDAC6 (Homo sapiens) as the test system: `O=C(CCCCCCCOc1cccc(-c2nc3ccc(-c4nc5ccccc5[nH]4)cc3[nH]2)c1)NO`
Sequence (Q9UBN7 whole entry): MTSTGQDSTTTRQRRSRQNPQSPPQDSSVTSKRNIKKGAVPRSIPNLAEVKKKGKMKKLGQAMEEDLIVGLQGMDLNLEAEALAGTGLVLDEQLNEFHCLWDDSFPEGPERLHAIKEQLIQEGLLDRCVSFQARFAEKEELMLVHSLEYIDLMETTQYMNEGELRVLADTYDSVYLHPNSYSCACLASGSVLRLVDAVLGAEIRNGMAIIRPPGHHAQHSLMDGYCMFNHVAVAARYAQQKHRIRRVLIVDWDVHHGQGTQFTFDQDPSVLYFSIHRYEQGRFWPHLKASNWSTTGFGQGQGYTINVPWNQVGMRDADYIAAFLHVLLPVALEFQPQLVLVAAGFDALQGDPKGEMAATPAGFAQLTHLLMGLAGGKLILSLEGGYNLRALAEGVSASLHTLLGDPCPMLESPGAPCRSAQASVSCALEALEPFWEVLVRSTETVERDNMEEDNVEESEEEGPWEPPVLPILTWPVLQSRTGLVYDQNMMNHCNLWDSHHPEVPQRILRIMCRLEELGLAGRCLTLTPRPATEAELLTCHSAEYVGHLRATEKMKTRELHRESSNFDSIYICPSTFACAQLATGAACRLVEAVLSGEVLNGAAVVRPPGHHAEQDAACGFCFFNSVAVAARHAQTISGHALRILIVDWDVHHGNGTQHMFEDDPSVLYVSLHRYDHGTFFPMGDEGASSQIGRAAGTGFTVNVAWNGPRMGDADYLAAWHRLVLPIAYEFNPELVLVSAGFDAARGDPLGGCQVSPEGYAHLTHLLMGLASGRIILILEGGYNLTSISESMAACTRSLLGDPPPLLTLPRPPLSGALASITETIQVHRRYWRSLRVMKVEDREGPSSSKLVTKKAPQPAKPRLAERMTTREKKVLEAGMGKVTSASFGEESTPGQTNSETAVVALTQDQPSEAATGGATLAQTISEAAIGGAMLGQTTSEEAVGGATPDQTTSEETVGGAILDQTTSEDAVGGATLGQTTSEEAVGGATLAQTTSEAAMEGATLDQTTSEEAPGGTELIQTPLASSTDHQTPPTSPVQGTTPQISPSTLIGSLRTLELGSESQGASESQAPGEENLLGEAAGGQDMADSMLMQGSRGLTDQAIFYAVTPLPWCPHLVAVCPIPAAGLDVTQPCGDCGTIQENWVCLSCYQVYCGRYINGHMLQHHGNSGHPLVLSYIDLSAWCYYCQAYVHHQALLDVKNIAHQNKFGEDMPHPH
Found: 7.64

====

subjectOfTest: Histone deacetylase
experimentalProtocol: Inhibition of HDAC in human HeLa nuclear extract using fluorogenic substrate incubated for 30 mins by fluorescence based assay
Type: cell-based
metric: log10(IC50) (log10 of the value in nM)
On a log10 scale: recorded IC50, unit nM.

Lookup: Respond only with log10(IC50) recorded for `O=C(CCCCCCCOc1cccc(-c2nc3ccccc3[nH]2)c1)NO`
Found: 0.90

Lookup: Respond only with log10(IC50) recorded for `O=C(CCCCCCOc1cccc(-c2nc3ccc(-c4nc5ccccc5[nH]4)cc3[nH]2)c1)NO`
Found: 1.25

Lookup: Respond only with log10(IC50) recorded for `O=C(CCCCCOc1ccc(-c2nc3ccccc3[nH]2)cc1)NO`
Found: 1.88

Lookup: Respond only with log10(IC50) recorded for `O=C(CCCCOc1ccc(-c2nc3ccccc3[nH]2)cc1)NO`
Found: 2.28

Lookup: Respond only with log10(IC50) recorded for `O=C(COc1ccc(-c2nc3ccccc3[nH]2)cc1)NO`
Found: 2.20

Lookup: Respond only with log10(IC50) recorded for `O=C(CCCOc1cccc(-c2nc3ccccc3[nH]2)c1)NO`
Found: 2.69

Lookup: Respond only with log10(IC50) recorded for `O=C(CCCCCOc1cccc(-c2nc3ccccc3[nH]2)c1)NO`
Found: 2.07

Lookup: Respond only with log10(IC50) recorded for `O=C(CCCOc1ccc(-c2nc3ccccc3[nH]2)cc1)NO`
Found: 2.99

Lookup: Respond only with log10(IC50) recorded for `O=C(CCCCCOc1ccc(-c2nc3ccc(-c4nc5ccccc5[nH]4)cc3[nH]2)cc1)NO`
Found: 1.64

Lookup: Respond only with log10(IC50) recorded for `O=C(CCCCCCCOc1cccc(-c2nc3ccc(-c4nc5ccccc5[nH]4)cc3[nH]2)c1)NO`
Found: 0.86

Lookup: Respond only with log10(IC50) recorded for `O=C(CCCCCCOc1ccc(-c2nc3ccc(-c4nc5ccccc5[nH]4)cc3[nH]2)cc1)NO`
Found: 0.88

Lookup: Respond only with log10(IC50) recorded for `O=C(CCCCOc1cccc(-c2nc3ccc(-c4nc5ccccc5[nH]4)cc3[nH]2)c1)NO`
Found: 2.48

Lookup: Respond only with log10(IC50) recorded for `O=C(CCCOc1cccc(-c2nc3ccc(-c4nc5ccccc5[nH]4)cc3[nH]2)c1)NO`
Found: 1.70

Lookup: Respond only with log10(IC50) recorded for `O=C(CCCCCCCOc1ccc(-c2nc3ccc(-c4nc5ccccc5[nH]4)cc3[nH]2)cc1)NO`
Found: 1.30

Lookup: Respond only with log10(IC50) recorded for `O=C(CCCCCOc1cccc(-c2nc3ccc(-c4nc5ccccc5[nH]4)cc3[nH]2)c1)NO`
Found: 1.44

Lookup: Respond only with log10(IC50) recorded for `O=C(CCCCCCOc1ccc(-c2nc3ccccc3[nH]2)cc1)NO`
Found: 1.61

Lookup: Respond only with log10(IC50) recorded for `O=C(CCCCOc1cccc(-c2nc3ccccc3[nH]2)c1)NO`
Found: 2.29

Lookup: Respond only with log10(IC50) recorded for `O=C(CCCCCCOc1cccc(-c2nc3ccccc3[nH]2)c1)NO`
Found: 1.12

Lookup: Respond only with log10(IC50) recorded for `O=C(CCCCOc1ccc(-c2nc3ccc(-c4nc5ccccc5[nH]4)cc3[nH]2)cc1)NO`
Found: 2.34

Lookup: Respond only with log10(IC50) recorded for `O=C(CCCCCCCOc1ccc(-c2nc3ccccc3[nH]2)cc1)NO`
Found: 1.69

Each recorded value in this set is attributed to ChEMBL document CHEMBL5038666.
